Tested on: HEK293
Experiment: Selectivity ratio of Ki for cloned human GABA alpha-2-beta-3-gamma-2 receptor expressed in HEK293 cells to Ki for cloned human GABA alpha-5-beta-3-gamma-2 receptor expressed in HEK293 cells
Assay type: cell-based
Would you mind labelling by Ratio Ki? At or over 10 is rule met, under is rule not met.

Cc1ncn2c1Cn1ncnc1-c1cc(OC(F)(F)F)ccc1-2: rule met
Cc1ncn2c1Cn1ncnc1-c1cc(Br)ccc1-2: rule met
Cc1ncn2c1Cn1ncnc1-c1ccccc1-2: rule not met
CS(=O)(=O)Nc1ccc2c(c1)-c1ncnn1Cc1c(Cl)ncn1-2: rule not met
Clc1ccc2c(c1)-c1ncnn1Cc1c(Cl)ncn1-2: rule met

[Q] Could you verify whether the entry `Clc1ncn2c1Cn1ncnc1-c1cc(NC3CC3)ccc1-2` shows Ratio Ki of no less than 10?
[A] rule met

[Q] How about `Cc1nc(-c2ncn3c2Cn2ncnc2-c2cc(F)ccc2-3)no1` ?
[A] rule not met

[Q] Further, for `Cc1ncn2c1Cn1ncnc1-c1cccc(F)c1-2` ?
[A] rule met

[Q] Thanks! And `N#Cc1ccc2c(c1)-c1ncnn1Cc1c(Cl)ncn1-2` ?
[A] rule met

[Q] How about this compound: `Clc1ncn2c1Cn1ncnc1-c1cc(-c3ccccc3)ccc1-2`
[A] rule not met

[Q] # iterate: `Clc1ncn2c1Cn1ncnc1-c1cc(-n3ccnc3)ccc1-2`
[A] rule not met
